All figures here come from patent US20220054469A1.

study system: hFXR (Homo sapiens)
run description: In Vitro FXR Assay (TK)
setup conditions: CV-1 cells transfected with hFXR, hRXR, TK-ECRE-luc and pCMX-YFP; incubated with compound for 18 hrs; luminescence
pEC50: −log10 of the molar value.
Answer each item with its documented pEC50.

Here is how some molecules turned out for pEC50.
COc1ccc(C23CCC(CN(c4cc(-c5noc(C(C)C)n5)ccn4)C(=O)[C@H]4CC[C@H](CC(=O)O)CC4)(CC2)CC3)cc1C [Compound 4.21] | 6.00 to 7.30
COc1ccc(C23CCC(CN(c4cccc(-c5nnc(C6CC6)o5)c4)C(=O)[C@H]4CC[C@H](CC(=O)O)CC4)(CC2)CC3)cc1C [Compound 4.30] | 6.00 to 7.30

Query: Lookup: pEC50 / hFXR (Homo sapiens) / COc1ccc(C23CCC(CN(c4cccc(-n5cnc(C6CC6)n5)c4)C(=O)[C@H]4CC[C@H](CC(=O)O)CC4)(CC2)CC3)cc1C [Compound 4.28]
Reply: ≥ 7.30

====

Answer each item with its documented pEC50.
study system: hFXR (Homo sapiens, UniProt Q96RI1)
Sequence (Q96RI1 1-486): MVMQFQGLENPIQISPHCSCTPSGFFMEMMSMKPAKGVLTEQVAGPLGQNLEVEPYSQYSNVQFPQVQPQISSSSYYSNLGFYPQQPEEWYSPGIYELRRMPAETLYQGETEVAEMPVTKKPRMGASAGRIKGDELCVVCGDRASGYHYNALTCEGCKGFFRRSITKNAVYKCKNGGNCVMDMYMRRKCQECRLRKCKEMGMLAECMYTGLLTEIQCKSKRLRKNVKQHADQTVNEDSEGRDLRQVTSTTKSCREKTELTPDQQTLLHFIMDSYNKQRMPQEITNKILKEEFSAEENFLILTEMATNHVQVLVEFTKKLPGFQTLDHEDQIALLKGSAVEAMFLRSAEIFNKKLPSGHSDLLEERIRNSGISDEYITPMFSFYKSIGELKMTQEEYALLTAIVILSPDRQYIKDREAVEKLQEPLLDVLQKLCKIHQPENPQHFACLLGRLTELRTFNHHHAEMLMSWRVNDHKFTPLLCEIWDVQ
Sequence (P19793 1-462 partner): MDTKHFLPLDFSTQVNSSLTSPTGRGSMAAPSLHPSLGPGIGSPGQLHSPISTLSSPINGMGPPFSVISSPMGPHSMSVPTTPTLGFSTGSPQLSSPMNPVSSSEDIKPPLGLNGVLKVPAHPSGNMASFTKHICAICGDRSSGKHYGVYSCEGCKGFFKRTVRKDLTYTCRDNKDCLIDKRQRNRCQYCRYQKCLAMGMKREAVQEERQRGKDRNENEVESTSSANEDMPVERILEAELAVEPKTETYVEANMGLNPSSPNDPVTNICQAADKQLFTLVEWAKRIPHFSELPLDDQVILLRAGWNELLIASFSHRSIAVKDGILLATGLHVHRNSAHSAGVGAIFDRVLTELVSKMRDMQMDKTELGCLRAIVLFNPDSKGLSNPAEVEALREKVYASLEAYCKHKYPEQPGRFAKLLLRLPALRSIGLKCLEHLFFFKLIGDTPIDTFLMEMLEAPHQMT
run description: In Vitro FXR Assay (TK)
setup conditions: CV-1 cells transfected with hFXR, hRXR, TK-ECRE-luc and pCMX-YFP; incubated with compound for 18 hrs; luminescence
pEC50: −log10 of the molar value.

Here is how some compounds turned out for pEC50.
COc1ccc(C23CCC(CN(c4ccnc(-c5cnn(C(C)C)c5)c4)C(=O)[C@H]4CC[C@H](CC(=O)O)CC4)(CC2)CC3)cc1C (relative stereo) [Compound 4.05] | 6.00 to 7.30
COc1ncc(C23CCC(CN(c4cccc(-c5cnn(C(C)(C)C)c5)c4)C(=O)[C@H]4CC[C@H](CC(=O)O)CC4)(CC2)CC3)cc1C [Compound 2.07] | ≥ 7.30

Query: Item under review: COc1ccc(C23CCC(CN(c4cc(-n5cnc(C(C)C)c5)ccn4)C(=O)[C@H]4CC[C@H](CC(=O)O)CC4)(CC2)CC3)cc1C [Compound 4.25] . Reported pEC50?
Reply: 6.00 to 7.30

====

Answer each item with its documented EC50.
study system: hFXR (Homo sapiens, UniProt Q96RI1)
run description: In Vitro FXR Assay (TK)
setup conditions: CV-1 cells transfected with hFXR, hRXR, TK-ECRE-luc and pCMX-YFP; incubated with compound for 18 hrs; luminescence

Here is how some compounds turned out for EC50.
COc1ccc(C23CCC(CN(c4cc(-c5cnc(C6CC6)s5)ccn4)C(=O)[C@H]4CC[C@H](CC(=O)O)CC4)(CC2)CC3)cc1C [Compound 4.15] | ≤ 0.05 µM
COc1ccc(C23CCC(CN(c4cccc(-c5cnn(C(C)(C)C)c5)c4)C(=O)[C@H]4CC[C@H](CC(=O)O)CC4)(CC2)CC3)cc1C [Compound 2.06] | ≤ 0.05 µM
COc1ccc(C23CCC(CN(C(=O)[C@@H]4CCC[C@@H](CC(=O)O)C4)c4cc(-c5cnn(C(C)C)c5)ccn4)(CC2)CC3)cc1C (relative stereo) [Compound 5.01] | 0.05 to 1 µM
COc1ccc(C23CCC(CN(c4cc(-c5cnn(C(C)C)c5)c(F)cn4)C(=O)[C@H]4CC[C@H](CC(=O)O)CC4)(CC2)CC3)cc1C [Compound 2.10] | ≤ 0.05 µM
COc1ccc([C@H]2CC[C@H](CN(c3cccc(-c4cnn(C(C)(C)C)c4)c3)C(=O)[C@H]3CC[C@H](C(=O)O)CC3)CC2)cc1C [Compound 2.02] | 0.05 to 1 µM

Query: Item under review: COc1ccc(C23CCC(CN(c4cccc(-n5cnc(C6CC6)c5)c4)C(=O)[C@H]4CC[C@H](CC(=O)O)CC4)(CC2)CC3)cc1C [Compound 4.29] . Reported EC50?
Reply: ≤ 0.05 µM

====

study system: hFXR (Homo sapiens, UniProt Q96RI1)
run description: In Vitro FXR Assay (TK)
setup conditions: CV-1 cells transfected with hFXR, hRXR, TK-ECRE-luc and pCMX-YFP; incubated with compound for 18 hrs; luminescence
Answer each item with its documented EC50.

Here is how some molecules turned out for EC50.
COc1ccc(C23CCC(CN(c4cc(-c5nnc(C(C)C)o5)ccn4)C(=O)[C@H]4CC[C@H](CC(=O)O)CC4)(CC2)CC3)cc1C | 50 to 1000 nM
COc1ccc(C23CCC(CN(c4cc(-n5ccc(C(C)C)n5)ccn4)C(=O)[C@H]4CC[C@H](CC(=O)O)CC4)(CC2)CC3)cc1C | 50 to 1000 nM

Query: Item under review: COc1ccc(C23CCC(CN(c4cc(-c5cnn(C(C)C)c5)ccn4)C(=O)[C@H]4CC[C@H](CCC(=O)O)CC4)(CC2)CC3)cc1C . Reported EC50?
Reply: ≤ 50 nM

====

Answer each item with its documented pEC50.
study system: hFXR (Homo sapiens)
run description: In Vitro FXR Assay (TK)
setup conditions: CV-1 cells transfected with hFXR, hRXR, TK-ECRE-luc and pCMX-YFP; incubated with compound for 18 hrs; luminescence
pEC50: −log10 of the molar value.

Here is how some compounds turned out for pEC50.
COc1ccc(C23CCC(CN(c4cc(-c5cnn(C(C)C)c5)ncn4)C(=O)[C@H]4CC[C@H](CC(=O)O)CC4)(CC2)CC3)cc1C | 6.00 to 7.30
COc1ccc(C23CCC(CN(c4cc(-n5cnc(C6CC6)n5)ccn4)C(=O)[C@H]4CC[C@H](CC(=O)O)CC4)(CC2)CC3)cc1C | ≥ 7.30

# map each compound to its pEC50
1. COc1ccc(C23CCC(CN(c4cc(-n5cnc(C(C)C)n5)ccn4)C(=O)[C@H]4CC[C@H](CC(=O)O)CC4)(CC2)CC3)cc1C
2. COc1ccc(C23CCC(CN(c4cccc(-c5cnn(C(C)C)c5)c4F)C(=O)[C@H]4CC[C@H](CC(=O)O)CC4)(CC2)CC3)cc1C
3. COc1ccc(C23CCC(CN(c4cncc(-c5cnn(C(C)C)c5)n4)C(=O)[C@H]4CC[C@H](CC(=O)O)CC4)(CC2)CC3)cc1C (relative stereo)

Reply:
["6.00 to 7.30", "≥ 7.30", "6.00 to 7.30"]

====

Answer each item with its documented EC50.
study system: UniProt Q96RI1
run description: In Vitro FXR Assay (TK)
setup conditions: CV-1 cells transfected with hFXR, hRXR, TK-ECRE-luc and pCMX-YFP; incubated with compound for 18 hrs; luminescence

COc1ccc(C23CCC(CN(c4cc(-c5cnn(C(C)C)c5)ccn4)C(=O)[C@H]4CC[C@H](C(=O)O)CC4)(CC2)CC3)cc1C | ≤ 50 nM
COc1ccc(C23CCC(CN(c4nccc(-c5cnn(C(C)C)c5)n4)C(=O)[C@H]4CC[C@H](CC(=O)O)CC4)(CC2)CC3)cc1C (relative stereo) | ≤ 50 nM
COc1ccc(C23CCC(CN(c4cc(-c5cnn(C(C)(C)C)c5)ccn4)C(=O)[C@H]4CC[C@H](CC(=O)O)CC4)(CC2)CC3)cc1C | ≤ 50 nM
COc1ccc(C23CCC(CN(c4ccc(F)c(-c5cnn(C(C)C)c5)c4)C(=O)[C@H]4CC[C@H](CC(=O)O)CC4)(CC2)CC3)cc1C | ≤ 50 nM
COc1ccc(C23CCC(CN(c4cc(-c5coc(C(C)C)n5)ccn4)C(=O)[C@H]4CC[C@H](CC(=O)O)CC4)(CC2)CC3)cc1C | ≤ 50 nM

Query: Item under review: COc1ccc(C23CCC(CN(c4cc(-c5cnn(C(C)C)c5)ccn4)C(=O)[C@H]4CC[C@@H](CC(=O)O)CC4)(CC2)CC3)cc1C . Reported EC50?
Reply: 50 to 1000 nM
